Entry source: paper PMC7672431

Target: T1, gp16 CTD (C-terminal domain of DNA packaging ATPase) (bacteriophage phi29, UniProt P11014 223-332)
T1 sequence: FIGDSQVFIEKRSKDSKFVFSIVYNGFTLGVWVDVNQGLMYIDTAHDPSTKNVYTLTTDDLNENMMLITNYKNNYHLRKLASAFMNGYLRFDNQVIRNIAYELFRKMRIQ
Assay: fluorescence intensity titration; Fluorescence: 50 mM sodium phosphate pH 6.5, 200 mM NaCl, temperature not stated; NMR: same buffer plus 0.02% NaN3, 2 mM DSS, ~100 uM protein, 303 K
Conditions: protein: recombinant; tags: His tag implied (pET30a NdeI/XhoI, Talon resin); label: 3' fluorescein (36FAM) on strand 1; blunt
recorded.endpoint: pKd
One number for each entry, as −log10 of the molar value.

-- ask Return reported pKd. Input binder: 22 bp dsDNA, 3'-fluorescein (dsDNA) DNA 1: GGTATCATGTGAGGGTGGGGGC DNA 2: GCCCCCACCCTCACATGATACC
-- reply 5.51
